- PROTOCOL_NOTES: Selectivity ratio of Kd for double stranded DNA (unknown origin) to Kd for biotinylated 5'-Pu22-3'-labelled c-myc G-quadruplex DNA
ASSAY_METRIC: Selectivity ratio

The following compounds have reported results that may help.
(Q) If you can, please state the reported Selectivity ratio value of CCN(CC)CC(=O)Nc1ccc(Nc2nc(N(CC)CC)nc3ccccc23)cc1 .
(A) > 3

(Q) If you can, please state the reported Selectivity ratio value of O=C(CN1CCCC1)Nc1ccc(Nc2nc(-c3ccccc3NC(=O)CN3CCCC3)nc3ccccc23)cc1 .
(A) > 62.5

(Q) If you can, please state the reported Selectivity ratio value of CCN(CC)CCCNCCC(=O)Nc1ccc(Nc2nc(-c3ccccc3NC(=O)CCNCCCN(CC)CC)nc3ccccc23)cc1 .
(A) 3.9

(Q) If you can, please state the reported Selectivity ratio value of CN(C)CCCNCCC(=O)Nc1ccc(Nc2nc(-c3ccccc3NC(=O)CCNCCCN(C)C)nc3ccccc23)cc1 .
(A) 10.3

(Q) If you can, please state the reported Selectivity ratio value of CCN(CC)CCC(=O)Nc1ccc(Nc2nc(N(CC)CC)nc3ccccc23)cc1 .
(A) > 6.1

Next:
(Q) If you can, please state the reported Selectivity ratio value of O=C(CCN1CCCCC1)Nc1ccc(Nc2nc(-c3ccccc3NC(=O)CCN3CCCCC3)nc3ccccc23)cc1 .
(A) > 45.4

(Q) If you can, please state the reported Selectivity ratio value of CCN(CC)CCCCC(=O)Nc1ccc(Nc2nc(-c3ccccc3NC(=O)CCCCN(CC)CC)nc3ccccc23)cc1 .
(A) > 19.2

(Q) If you can, please state the reported Selectivity ratio value of CCN(CC)CCCC(=O)Nc1ccc(Nc2nc(-c3ccccc3NC(=O)CCCN(CC)CC)nc3ccccc23)cc1 .
(A) > 18.5

(Q) If you can, please state the reported Selectivity ratio value of CCN(CC)CCC(=O)Nc1ccc(Nc2nc(-c3ccccc3NC(=O)CCN(CC)CC)nc3ccccc23)cc1 .
(A) > 47.6

(Q) If you can, please state the reported Selectivity ratio value of O=C(CCN1CCCC1)Nc1ccc(Nc2nc(-c3ccccc3NC(=O)CCN3CCCC3)nc3ccccc23)cc1 .
(A) > 50

(Q) If you can, please state the reported Selectivity ratio value of O=C(CCCN1CCCC1)Nc1ccc(Nc2nc(-c3ccccc3NC(=O)CCCN3CCCC3)nc3ccccc23)cc1 .
(A) > 18.2

(Q) If you can, please state the reported Selectivity ratio value of CCN(CC)CCC(=O)Nc1cc(Cl)ccc1-c1nc(NCCCN(C)C)c2ccccc2n1 .
(A) 18.7
